Target: recombinant human ALK5 (TGF-βR1) protein (Homo sapiens)
Experiment: Biochemical ALK5 (TGF-βR1) assay to measure pKi (LANCE Ultra ULight kinase assay)
Settings: apparent pKi, converted from pIC50 by Cheng-Prusoff
Protocol: The assays were performed in a 384-well plate (24 columns×16 wells/rows). An Echo®550 Liquid Handler (Labcyte) was used to prepare various intermediate concentrations of compounds of the present disclosure in 100% DMSO. […] For dose-response analyses, percent inhibition versus compound concentrations were plotted, and pIC50 values were determined from a 4-parameter robust fit model with GraphPad Prism V5 Software (GraphPad Software, Inc., La Jolla, CA). […]
Measured Ki by item

Recorded Ki, per entry:
compound | study target | Ki
Cc1cccc(-c2nccc(Nc3ccnc(Nc4csc(NC(=O)C5CCNC5)c4)n3)n2)n1 (stereo not shown) | recombinant human ALK5 (TGF-βR1) protein (Homo sapiens) | ≤ 0.0316 nM
Cc1cccc(-c2nccc(Nc3ccnc(Nc4ccc(C(=O)OC[C@H]5CCCCN5)nc4)n3)n2)n1 | recombinant human ALK5 (TGF-βR1) protein (Homo sapiens) | 0.0398 to 0.316 nM
Cc1cccc(-c2nccc(Nc3ccnc(Nc4csc(C(=O)OCC5CCNCC5)c4)n3)n2)n1 | recombinant human ALK5 (TGF-βR1) protein (Homo sapiens) | 0.0398 to 0.316 nM
Cc1cccc(-c2nccc(Nc3ccnc(Nc4ccc(C5CNCCN5)cc4)n3)n2)n1 (stereo not shown) | recombinant human ALK5 (TGF-βR1) protein (Homo sapiens) | ≤ 0.0316 nM
Cc1cccc(-c2nc(Nc3ccnc(Nc4ccc(N5CCNCC5)cc4)n3)cc(-c3c[nH]nn3)n2)n1 | recombinant human ALK5 (TGF-βR1) protein (Homo sapiens) | 0.0398 to 0.316 nM
Cc1cccc(-c2nccc(Nc3ccnc(Nc4ccc(C(=O)OCCN5C[C@@H](C)N[C@@H](C)C5)nc4)n3)n2)n1 | recombinant human ALK5 (TGF-βR1) protein (Homo sapiens) | 0.398 to 3.16 nM

Enquiry: Item Cc1cccc(-c2nc(Nc3ccnc(Nc4ccc(NC(=O)C5CCNC5)cc4)n3)c3cccn3n2)n1 (stereo not shown) has what recorded Ki?
Return: 0.0398 to 0.316 nM

----------
Molecular target: recombinant human ALK5 (TGF-βR1) protein (Homo sapiens, UniProt P36897)
Sequence (P36897 34-503): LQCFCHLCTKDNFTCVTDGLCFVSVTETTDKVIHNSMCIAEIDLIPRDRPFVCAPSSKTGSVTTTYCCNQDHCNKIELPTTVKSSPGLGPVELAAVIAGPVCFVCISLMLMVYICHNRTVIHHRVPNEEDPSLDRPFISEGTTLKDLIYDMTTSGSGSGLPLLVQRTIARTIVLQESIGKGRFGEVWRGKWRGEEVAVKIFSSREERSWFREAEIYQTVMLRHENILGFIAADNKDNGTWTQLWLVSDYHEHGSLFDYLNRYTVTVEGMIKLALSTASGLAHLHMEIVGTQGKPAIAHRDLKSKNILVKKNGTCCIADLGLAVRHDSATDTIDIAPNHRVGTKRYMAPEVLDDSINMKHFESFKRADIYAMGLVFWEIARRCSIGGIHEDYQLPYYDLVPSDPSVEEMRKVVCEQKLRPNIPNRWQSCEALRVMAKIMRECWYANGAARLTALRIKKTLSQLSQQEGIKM
Experiment: Biochemical ALK5 (TGF-βR1) assay to measure pKi (LANCE Ultra ULight kinase assay)
Conditions: apparent pKi, converted from pIC50 by Cheng-Prusoff
Procedure: The assays were performed in a 384-well plate (24 columns×16 wells/rows). An Echo®550 Liquid Handler (Labcyte) was used to prepare various intermediate concentrations of compounds of the present disclosure in 100% DMSO. […] For dose-response analyses, percent inhibition versus compound concentrations were plotted, and pIC50 values were determined from a 4-parameter robust fit model with GraphPad Prism V5 Software (GraphPad Software, Inc., La Jolla, CA). […]
measured parameter: Ki

Recorded Ki, per entry:
compound | result
Cc1cccc(-c2nccc(Nc3ccnc(Nc4cnn(CCCN)c4)n3)n2)n1 | 0.0398 to 0.316 nM
Cc1cccc(-c2nccc(Nc3ccnc(Nc4ccc(CN5CCCC(C(=O)NC6CCNCC6)C5)cc4)n3)n2)n1 (stereo not shown) | 0.0398 to 0.316 nM
Cc1cccc(-c2nccc(Nc3ccnc(Nc4ccc5c(c4)CCN(C(C)C)CC5)n3)n2)n1 | ≤ 0.0316 nM

Enquiry: Item Cc1cccc(-c2nccc(Nc3ccnc(Nc4ccc(F)c(CO)c4)n3)n2)n1 has what recorded Ki?
Return: 0.0398 to 0.316 nM

Enquiry: Item Cc1cccc(-c2nccc(Nc3ccnc(Nc4ccc(N5CCC(CNCC(C)C)CC5)cc4)n3)n2)n1 has what recorded Ki?
Return: 0.398 to 3.16 nM

Enquiry: Item Cc1cccc(-c2nccc(Nc3ccnc(Nc4ccc(CN5CC(C(=O)O[C@@H]6CCNC6)C5)cc4)n3)n2)n1 has what recorded Ki?
Return: 0.0398 to 0.316 nM

Enquiry: Item Cc1cccc(-c2nccc(Nc3ccnc(Nc4ccc(N5CCC(C(=O)OC6CNC6)CC5)cc4)n3)n2)n1 has what recorded Ki?
Return: 0.0398 to 0.316 nM
